Cited source for all entries: patent US11091482B2

The entries below are paired with their reported EC50.
molecular target: human Farnesoid X receptor ligand-binding domain/Gal4 DNA binding domain chimera (Homo sapiens (Human), UniProt Q96RI1); assay: Cell-based FXR beta-lactamase reporter assay (FXR-UAS-bla HEK 293T cells); conditions: cellular FXR beta-lactamase reporter assay, -log EC50; read-out: FXR pEC50 (converted)
Sequence (Q96RI1 262-486, change not shown): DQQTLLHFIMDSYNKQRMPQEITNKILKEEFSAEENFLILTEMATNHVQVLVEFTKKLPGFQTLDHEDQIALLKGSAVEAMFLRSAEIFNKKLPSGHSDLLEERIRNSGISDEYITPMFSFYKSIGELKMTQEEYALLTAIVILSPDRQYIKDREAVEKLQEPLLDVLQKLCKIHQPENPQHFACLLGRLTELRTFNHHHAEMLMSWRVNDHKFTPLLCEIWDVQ
recordedMetric: EC50 (nM)

molecule: CS(=O)(=O)NC(=O)c1ccc(N2[C@@H]3CC[C@H]2C[C@@H](OC(=O)c2c(-c4c(Cl)cccc4Cl)noc2C2CC2)C3)c(F)c1 [Compound I-51]
recordedMetric: EC50
modifier: =
numericReadout: 5.01
--
molecule: O=C(OCC(=O)N(CCO)CCO)c1cc(F)c2nc(N3[C@@H]4CC[C@H]3C[C@@H](OC(=O)c3c(-c5c(Cl)cccc5Cl)noc3C3CC3)C4)sc2c1 [Compound I-64]
recordedMetric: EC50
modifier: <
numericReadout: 31.6
--
molecule: O=C(OCCN(CCO)CCO)c1cc(F)c2nc(N3[C@@H]4CC[C@H]3C[C@@H](OC(=O)c3c(-c5c(Cl)cccc5Cl)noc3C3CC3)C4)sc2c1 [Compound I-63]
recordedMetric: EC50
modifier: =
numericReadout: 10000
--
molecule: O=C(O)c1ccc(N2[C@@H]3CC[C@H]2C[C@@H](OC(=O)c2c(-c4c(Cl)cccc4Cl)noc2C2CC2)C3)cc1F [Compound I-41]
recordedMetric: EC50
modifier: =
numericReadout: 20
--
molecule: O=C(NS(=O)(=O)CCCO)c1ccc(N2[C@@H]3CC[C@H]2C[C@@H](OC(=O)c2c(-c4c(Cl)cccc4Cl)noc2C2CC2)C3)cc1 [Compound I-50]
recordedMetric: EC50
modifier: =
numericReadout: 158
--
molecule: COc1cc2nc(N3[C@@H]4CC[C@H]3C[C@@H](OC(=O)c3c(C56CCC(CC5)CC6)noc3C3CC3)C4)sc2cc1C(=O)O [Compound I-22]
recordedMetric: EC50
modifier: =
numericReadout: 398
